Data origin: the supplement of paper PMC10307832

relative viability listing for selected compounds.
Tested on: NCI-H647
PROTOCOL: relative viability (nuclei count vs DMSO), 5 days (fraction); higher = more cells survive
CONDITIONS_USED: first compound 0.6325 µM
Please reply with the number alone, leaving off any unit.

Cc1csc(=NC2CCCCC2)n1/N=C/c1ccc(O)c(O)c1O [MIM1] + Cc1nc(Nc2ncc(C(=O)Nc3c(C)cccc3Cl)s2)cc(N2CCN(CCO)CC2)n1 [Dasatinib] (partner 0.075 µM) = 0.225
CN1CCN(CCOc2cc(OC3CCOCC3)c3c(Nc4c(Cl)ccc5c4OCO5)ncnc3c2)CC1 [Saracatinib] + O=C(CCCCCCC(=O)Nc1ccccc1)NO [Vorinostat] (partner 1 µM) = 0.532
Cc1csc(=NC2CCCCC2)n1/N=C/c1ccc(O)c(O)c1O [MIM1] + CC(=O)Nc1cccc(-n2c(=O)n(C3CC3)c(=O)c3c(Nc4ccc(I)cc4F)n(C)c(=O)c(C)c32)c1 [Trametinib] (partner 0.02 µM) = 0.567
CN1CCN(CCOc2cc(OC3CCOCC3)c3c(Nc4c(Cl)ccc5c4OCO5)ncnc3c2)CC1 [Saracatinib] + CS(=O)(=O)CCNCc1ccc(-c2ccc3ncnc(Nc4ccc(OCc5cccc(F)c5)c(Cl)c4)c3c2)o1 [Lapatinib] (partner 2 µM) = 0.894

Look up and report measured relative viability for this entry: CN1CCN(CCOc2cc(OC3CCOCC3)c3c(Nc4c(Cl)ccc5c4OCO5)ncnc3c2)CC1 [Saracatinib] + CC(=O)c1c(C)c2cnc(Nc3ccc(N4CCNCC4)cn3)nc2n(C2CCCC2)c1=O [Palbociclib] (partner 0.5 µM)
0.347

Look up and report measured relative viability for this entry: Cc1csc(=NC2CCCCC2)n1/N=C/c1ccc(O)c(O)c1O [MIM1] + CC(C)C[C@H](NC(=O)[C@H](Cc1ccccc1)NC(=O)c1cnccn1)B(O)O [Bortezomib] (partner 0.002 µM)
0.878

Look up and report measured relative viability for this entry: Cc1csc(=NC2CCCCC2)n1/N=C/c1ccc(O)c(O)c1O [MIM1] + O=C(CCCCCCC(=O)Nc1ccccc1)NO [Vorinostat] (partner 1 µM)
0.61

Look up and report measured relative viability for this entry: CN1CCN(CCOc2cc(OC3CCOCC3)c3c(Nc4c(Cl)ccc5c4OCO5)ncnc3c2)CC1 [Saracatinib] + CCNC(=O)c1noc(-c2cc(C(C)C)c(O)cc2O)c1-c1ccc(CN2CCOCC2)cc1 [Luminespib] (partner 0.01 µM)
0.303

Look up and report measured relative viability for this entry: Cc1csc(=NC2CCCCC2)n1/N=C/c1ccc(O)c(O)c1O [MIM1] + CS(=O)(=O)N1CCN(Cc2cc3nc(-c4cccc5[nH]ncc45)nc(N4CCOCC4)c3s2)CC1 [Pictilisib] (partner 1 µM)
0.578
